# Method Summary: Protein binding in rat lung homogenate at 10 uM incubated for 4 hrs by LC/MS/MS analysis
# Assay type: ADME, tissue-based
# Measurement Context: read-out: PB (converted)
Endpoint: fraction unbound at 4 h, 10 µM

C[C@H]1CCCCN1c1nnc2ccc(O[C@@H]3CC[C@H](NC(=O)Nc4cc(C(C)(C)C)nn4-c4cnn(CCN(C)C)c4)c4ccccc43)cn12
0.005

[a] C[C@@H]1CCC[C@H](C)N1c1nnc2ccc(O[C@@H]3CC[C@H](NC(=O)Nc4cc(C(C)(C)C)nn4-c4cnn(CCN(C)C)c4)c4ccccc43)cn12
[b] Cc1ccc(-n2nc(C(C)(C)C)cc2NC(=O)N[C@H]2CC[C@@H](Oc3ccc4nnc(C(C)C)n4c3)c3ccccc32)cc1
[c] Cc1ccc(-n2nc(C(C)(C)C)cc2NC(=O)N[C@H]2CC[C@@H](Oc3ccc4nnc(N5CCC(CO)CC5)n4c3)c3ccccc32)cc1
query: Sequence the entries by fraction unbound at 4 h, 10 µM, beginning with the highest number. Labels, requested order.
result: c, b, a
